Tested on: pyruvate kinase (PK)
Assay: Pyruvate kinase activity in HepG2 WT protein lysate
Format: biochemical
Conditions: 10 µM, compared to the control (DMSO)
Method: HepG2 WT and HepG2 KO cells were lysed, and protein lysate was prepared with CelLytic M (C2978, Sigma-Aldrich) lysis buffer. Protein lysate was treated with 10 µM of the drugs and the pyruvate kinase activity on protein lysate was measured using Pyruvate Kinase Assay Kit (ab83432, abeam) following manufacturer's instruction. […] O.D values were measured with microplate reader (Hidex Sense Beta Plus) at 570nm wavelength. […]
Hi! Just check whether reduction in PK activity of HepG2 WT protein lysate is below 20%. Below gives Satisfied, equal or above gives Not satisfied.

{"QUERY_SMILES": "O=S1(=O)Nc2cc(O)c(O)cc2-c2cc(O)c(O)cc21", "LABEL_CLASS": "Not satisfied"}
{"QUERY_SMILES": "O=S1(=O)c2cc(O)c(O)cc2-c2cc(O)c(O)cc2N1Cc1ccccc1", "LABEL_CLASS": "Not satisfied"}
{"QUERY_SMILES": "O=S(=O)(NCc1ccccc1)c1cc(O)c(O)cc1-c1ccc(O)c(O)c1", "LABEL_CLASS": "Not satisfied"}
{"QUERY_SMILES": "O=S1(=O)c2cc(O)c(O)cc2-c2ccc(C(F)(F)F)cc2N1Cc1ccc(F)cc1", "LABEL_CLASS": "Satisfied"}
{"QUERY_SMILES": "O=S1(=O)c2cc(O)c(O)cc2-c2ccc(C(F)(F)F)cc2N1Cc1ccccc1", "LABEL_CLASS": "Not satisfied"}
{"QUERY_SMILES": "COc1cc2c(cc1OC)S(=O)(=O)N(Cc1ccccc1)c1cc(C(F)(F)F)ccc1-2", "LABEL_CLASS": "Satisfied"}
{"QUERY_SMILES": "COc1cc2c(cc1OC)S(=O)(=O)N(Cc1ccc(F)cc1)c1cc(C(F)(F)F)ccc1-2", "LABEL_CLASS": "Not satisfied"}
{"QUERY_SMILES": "O=S(=O)(NCc1ccc(F)cc1)c1cc(O)c(O)cc1-c1ccc(C(F)(F)F)cc1", "LABEL_CLASS": "Satisfied"}
{"QUERY_SMILES": "O=S(=O)(NCc1ccc(F)cc1)c1cc(O)c(O)cc1-c1ccc(O)c(O)c1", "LABEL_CLASS": "Satisfied"}

----------
biological target: pyruvate kinase liver (PKL) (Homo sapiens); construct: endogenous in cells; host or cells: HepG2 PKM2 CRISPR KO (HepG2 KO) cells; lysate in CelLytic M or treated whole cells; assay: Pyruvate kinase activity in HepG2 PKM2 CRISPR KO protein lysate; format: biochemical; settings: compared to the control (DMSO), read-out: reduction in PK activity of HepG2 KO protein lysate
Sequence (P30613 1-543 isoform P30613-2): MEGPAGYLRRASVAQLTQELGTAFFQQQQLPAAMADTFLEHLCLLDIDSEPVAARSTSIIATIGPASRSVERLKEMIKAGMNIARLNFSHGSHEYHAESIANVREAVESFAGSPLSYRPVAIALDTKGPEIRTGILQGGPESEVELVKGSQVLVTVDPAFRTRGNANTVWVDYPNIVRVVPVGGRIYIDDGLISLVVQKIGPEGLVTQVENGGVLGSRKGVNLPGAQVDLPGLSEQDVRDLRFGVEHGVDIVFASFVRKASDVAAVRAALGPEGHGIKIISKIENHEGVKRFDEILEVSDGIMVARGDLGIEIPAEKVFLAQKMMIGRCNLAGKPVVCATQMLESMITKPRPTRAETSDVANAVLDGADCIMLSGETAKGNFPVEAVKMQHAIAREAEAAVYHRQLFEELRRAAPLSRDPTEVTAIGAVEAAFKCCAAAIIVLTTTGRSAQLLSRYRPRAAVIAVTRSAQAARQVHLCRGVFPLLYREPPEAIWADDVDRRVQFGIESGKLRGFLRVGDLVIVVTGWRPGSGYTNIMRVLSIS
ENDPOINT: inhibition at 10 µM (%)

{"MOLECULE": "COc1cc(Br)c(S(=O)(=O)NCc2cn(CC(=O)c3ccccc3)nn2)cc1OC [SET-27A]", "ENDPOINT": "inhibition at 10 µM", "TEST_RESULT": 4.3}
{"MOLECULE": "COc1cc2c(cc1OC)S(=O)(=O)N(Cc1ccc(F)cc1)c1cc(C(F)(F)F)ccc1-2 [SET-58]", "ENDPOINT": "inhibition at 10 µM", "TEST_RESULT": 32.4}
{"MOLECULE": "O=S(=O)(NCc1ccc(F)cc1)c1cc(O)c(O)cc1-c1ccc(C(F)(F)F)cc1 [SET-57]", "ENDPOINT": "inhibition at 10 µM", "TEST_RESULT": 35.2}
{"MOLECULE": "COc1cc(-c2ccc(C(F)(F)F)cc2)c(S(=O)(=O)NCc2ccccc2)cc1OC [SET-26]", "ENDPOINT": "inhibition at 10 µM", "TEST_RESULT": 8}
{"MOLECULE": "O=S(=O)(NCc1ccccc1)c1cc(O)c(O)cc1-c1ccc(C(F)(F)F)cc1 [SET-60]", "ENDPOINT": "inhibition at 10 µM", "TEST_RESULT": 17.2}
{"MOLECULE": "COc1cc(Br)c(S(=O)(=O)NCc2cn(Cc3ccccc3)nn2)cc1OC [SET-35A]", "ENDPOINT": "inhibition at 10 µM", "TEST_RESULT": 4.4}
{"MOLECULE": "O=S1(=O)Nc2cc(O)c(O)cc2-c2cc(O)c(O)cc21 [SET-10]", "ENDPOINT": "inhibition at 10 µM", "TEST_RESULT": 29.4}
{"MOLECULE": "O=S(=O)(NCc1ccc(F)cc1)c1cc(O)c(O)cc1-c1ccc(O)c(O)c1 [SET-13]", "ENDPOINT": "inhibition at 10 µM", "TEST_RESULT": 70.2}
{"MOLECULE": "O=S1(=O)c2cc(O)c(O)cc2-c2cc(O)c(O)cc2N1Cc1ccccc1 [SET-09]", "ENDPOINT": "inhibition at 10 µM", "TEST_RESULT": 70.2}
{"MOLECULE": "O=S(=O)(NCc1ccccc1)c1cc(O)c(O)cc1-c1ccc(O)c(O)c1 [SET-15]", "ENDPOINT": "inhibition at 10 µM", "TEST_RESULT": 59.1}
{"MOLECULE": "O=S1(=O)c2cc(O)c(O)cc2-c2ccc(C(F)(F)F)cc2N1Cc1ccccc1 [SET-62]", "ENDPOINT": "inhibition at 10 µM", "TEST_RESULT": 57}
